- System: Plasma protein
- experimentSummary: Biological Test Example 5: fraction unbound in human plasma (equilibrium dialysis)
- Type: in vitro ADME
- experimentalConditions: Examples
Quick rule for you: Biological Test Example 5 (%) at 10% or higher means true (1), lower means false (0).

compound: C[C@@H](c1ccc(-c2ccn(C)c(=O)c2)cc1)N1CC[C@](CC(C)(C)O)(c2ccccc2)OC1=O [Example 48]
label: false (0)
//
compound: C[C@@H](c1ccc(-c2ccc(=O)n(C)c2)cc1)N1CC[C@](CC(C)(C)O)(c2ccc(F)cc2)OC1=O [Example 32]
label: true (1)
//
compound: CC[C@@H](c1ccc(-c2ccc(=O)n(CC)c2)cc1)N1CC[C@](CC(C)(C)O)(c2ccccc2)OC1=O [Example 52]
label: false (0)
//
compound: C[C@@H](c1ccc(-c2ccn(C3CC3)c(=O)c2)cc1)N1CC[C@](CC(C)(C)O)(c2ccccc2)OC1=O [Example 75]
label: true (1)
//
compound: CC[C@@H](c1ccc(-c2ccc(=O)n(C)c2)cc1)N1CC[C@](CC(C)(C)O)(c2ccccc2)OC1=O [Example 54]
label: false (0)
//
compound: C[C@@H](c1ccc(-c2ccc(=O)n(C)c2)cc1)N1CC[C@](CCCO)(c2ccccc2)OC1=O [Example 30]
label: true (1)
//
compound: C[C@@H](c1ccc(-c2ccc(=O)n(C)c2)cc1)N1CC[C@](CC(C)(C)O)(c2ccccc2)OC1=O [Example 37]
label: true (1)
//
compound: CC[C@@H](c1ccc(-c2ccn(C)c(=O)c2)cc1)N1CC[C@](CC(C)(C)O)(c2ccccc2)OC1=O [Example 55]
label: false (0)
//
compound: CCn1cc(-c2ccc([C@H](C)N3CC[C@](CC(C)(C)O)(c4ccccc4)OC3=O)cc2)ccc1=O [Example 53]
label: true (1)
//
compound: C[C@@H](c1ccc(-c2ccn(CC(F)(F)F)c(=O)c2)cc1)N1CC[C@](CC(C)(C)O)(c2ccccc2)OC1=O [Example 66]
label: false (0)

* * *

// reported pIC50 per item
- targetEntity: human recombinant cytochrome P450 3A4 (Homo sapiens)
- Sequence (P08684 whole entry): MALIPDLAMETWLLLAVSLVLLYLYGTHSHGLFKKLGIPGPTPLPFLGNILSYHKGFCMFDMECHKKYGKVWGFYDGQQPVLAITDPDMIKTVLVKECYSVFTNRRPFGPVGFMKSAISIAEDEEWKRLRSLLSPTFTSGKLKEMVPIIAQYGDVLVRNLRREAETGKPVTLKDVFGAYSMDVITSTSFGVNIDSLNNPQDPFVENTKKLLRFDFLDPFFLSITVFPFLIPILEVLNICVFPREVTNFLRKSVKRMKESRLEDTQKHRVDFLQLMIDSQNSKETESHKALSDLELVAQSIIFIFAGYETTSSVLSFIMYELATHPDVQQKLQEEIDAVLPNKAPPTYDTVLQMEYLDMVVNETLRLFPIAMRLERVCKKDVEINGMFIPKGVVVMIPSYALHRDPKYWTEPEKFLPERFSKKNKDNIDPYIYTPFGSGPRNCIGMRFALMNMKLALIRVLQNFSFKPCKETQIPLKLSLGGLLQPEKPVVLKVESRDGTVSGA
pIC50: −log10 of the molar value.

compoundStructure: CCn1cc(-c2ccc([C@H](C)N3CC[C@](CC(C)(C)O)(c4ccccc4)OC3=O)cc2)cc(C)c1=O
modifierSign: =
pIC50: 4.55

compoundStructure: C[C@@H](c1ccc(-c2ccn(C3CC3)c(=O)c2)cc1)N1CC[C@](CC(C)(C)O)(c2ccccc2)OC1=O
modifierSign: =
pIC50: 4.64

compoundStructure: C[C@@H](c1ccc(-c2ccc(=O)n(C)c2)cc1)N1CC[C@](CCCO)(c2ccc(F)cc2)OC1=O
modifierSign: <
pIC50: 4.30

compoundStructure: C[C@@H](c1ccc(-c2cc[nH]c(=O)c2)cc1)N1CC[C@](CC(C)(C)C#N)(c2ccccc2)OC1=O
modifierSign: =
pIC50: 4.60

* * *

- targetEntity: 11β-HSD1 (Homo sapiens, UniProt P28845)
- Sequence (P28845 whole entry): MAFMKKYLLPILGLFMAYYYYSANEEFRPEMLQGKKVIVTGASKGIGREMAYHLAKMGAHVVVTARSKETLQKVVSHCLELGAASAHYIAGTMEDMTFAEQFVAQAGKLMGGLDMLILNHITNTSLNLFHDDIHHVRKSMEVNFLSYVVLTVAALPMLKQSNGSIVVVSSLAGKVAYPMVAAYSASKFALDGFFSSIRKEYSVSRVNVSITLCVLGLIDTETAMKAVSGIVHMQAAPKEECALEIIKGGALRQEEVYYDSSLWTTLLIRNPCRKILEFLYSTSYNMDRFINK
- experimentalConditions: read-out: Biological Test Example 1 IC50 Range; microsomal preparation of human 11β-HSD1, SPA
pIC50: −log10 of the molar value.

compound: C[C@@H](c1ccc(-c2ccn(C3CC3)c(=O)c2)cc1)N1CCC(CC(C)(C)O)(C2CCOCC2)OC1=O (single isomer, unassigned) [Example 91 Isomer 2]
pIC50: < 7.00

compound: C[C@@H](c1ccc(-c2ccn(C3CC3)c(=O)c2)cc1)N1CCC(CC(C)(C)O)(C2CC(F)(F)C2)OC1=O (single isomer, unassigned) [Example 95 Isomer 2]
pIC50: < 7.00

compound: C[C@@H](c1ccc(-c2ccn(C3CC3)c(=O)c2)cc1)N1CCC(CC(C)(C)C)(CC(C)(C)O)OC1=O (single isomer, unassigned) [Example 94 Isomer 2]
pIC50: < 7.00
